# assay comment: Pharmacokinetic experiments in ICR mice (plasma)
# Type: in vivo
# condition summary: mouse, single intravenous injection 2 mg/kg, plasma
Below, each entry is listed with its recorded AUC(0-inf).
Supply the numeric figure in ng·h/mL, leaving out any unit text.

In [3]: df
Out[3]:
                                   molecule  reported_measurement
0  COCc1ncc(-c2cc3c(cc2OC)-c2cc(=O)c(C(=O)O)cn2C(C(C)(C)C)C3)s1 (centres unmarked)                   804

--- query ---
q: Write down AUC(0-inf) measured for item CNC(=O)c1ncc(-c2cc3c(cc2OC)-c2cc(=O)c(C(=O)O)cn2C(C(C)(C)C)C3)s1 (centres unmarked)
a: 1210

* * *

Below, each entry is listed with its recorded IC50.
# Tested on: hepatitis B surface antigen (HBsAg)
# assay comment: Determination of hepatitis B surface antigen (HBsAg) in HepG2.2.15 cell supernatant
# Assay type: cell-based, hepatitis B virus (HepG2.2.15 cells)
# condition summary: Hepatitis B virus, HepG2.2.15, 96 h, read-out: HBsAg inhibitory activity IC50
Supply the numeric figure in nM, leaving out any unit text.

q: Write down IC50 measured for item COc1cc2c(cc1-c1cnc(N3CCC(C)(O)CC3)s1)CC(C(C)(C)C)n1cc(C(=O)O)c(=O)cc1-2 (stereo not shown) [Example 7]
a: 0.08

q: Write down IC50 measured for item CCNC(=O)c1ncc(-c2cc3c(cc2OC)-c2cc(=O)c(C(=O)O)cn2C(C(C)(C)C)C3)s1 (stereo not shown) [Example 20]
a: 0.3

q: Write down IC50 measured for item COc1cc2c(cc1-c1cnc(C3CC(OC)C3)s1)CC(C(C)(C)C)n1cc(C(=O)O)c(=O)cc1-2 (stereo not shown) [Example 27]
a: 0.1

q: Write down IC50 measured for item CCOc1ncc(-c2cc3c(cc2OC)-c2cc(=O)c(C(=O)O)cn2C(C(C)(C)C)C3)s1 (stereo not shown) [Example 13]
a: 0.2

q: Write down IC50 measured for item COc1cc2c(cc1-c1cnc(COC(F)F)s1)CC(C(C)(C)C)n1cc(C(=O)O)c(=O)cc1-2 (stereo not shown) [Example 23]
a: 0.2

q: Write down IC50 measured for item COc1cc2c(cc1-c1cnc(C3CC(F)C3)s1)CC(C(C)(C)C)n1cc(C(=O)O)c(=O)cc1-2 (stereo not shown) [Example 26]
a: 0.1

* * *

# System: hepatitis B surface antigen (HBsAg)
# assay comment: Determination of hepatitis B surface antigen (HBsAg) in HepG2.2.15 cell supernatant
# Format: cell-based, hepatitis B virus (HepG2.2.15 cells)
# condition summary: Hepatitis B virus, HepG2.2.15, 96 h, read-out: HBsAg inhibitory activity IC50
pIC50: −log10 of the molar value.
Returns 1 (yes) if the recorded pIC50 is greater than or equal to 10, and 0 (no) otherwise.

In [3]: df
Out[3]:
                                   compound  assigned_label
0  COc1cc2c(cc1-c1cnc(C3CC(F)(F)C3)s1)CC(C(C)(C)C)n1cc(C(=O)O)c(=O)cc1-2 (stereo not shown)          0 (no)
1  COCCOc1ncc(-c2cc3c(cc2OC)-c2cc(=O)c(C(=O)O)cn2C(C(C)(C)C)C3)s1 (stereo not shown)          0 (no)

q: Please tell me: is the compound COc1cc2c(cc1-c1cnc(C(C)OC)s1)CC(C(C)(C)C)n1cc(C(=O)O)c(=O)cc1-2 (stereo not shown) at or over 10 in terms of pIC50?
a: 0 (no)

q: Please tell me: is the compound COc1cc2c(cc1-c1cnc(N3CC(OC)C3)s1)CC(C(C)(C)C)n1cc(C(=O)O)c(=O)cc1-2 (stereo not shown) at or over 10 in terms of pIC50?
a: 1 (yes)

q: Please tell me: is the compound COc1cc2c(cc1-c1cnc(N3CCOCC3)s1)CC(C(C)(C)C)n1cc(C(=O)O)c(=O)cc1-2 (stereo not shown) at or over 10 in terms of pIC50?
a: 0 (no)
